Tested on: Pseudomonas aeruginosa
Experiment: Antibacterial activity against gram-negative Pseudomonas aeruginosa at 5 mg/ml after 24 hrs by well diffusion method
Type: functional
Settings: read-out: DIZ
experimentalReadout: zone of inhibition at 5000 µg/mL (mm)
Kindly provide the numeric value in mm only, without the unit symbol.

For orientation, consider the following solved cases.
Cn1c(=O)c2c(-c3c[nH]c4ccccc34)c[nH]c2n(C)c1=O
20
Cc1ccc(-c2c[nH]c3c2c(=O)n(C)c(=O)n3C)cc1
20
Cn1c(=O)c2c(-c3ccco3)c[nH]c2n(C)c1=O
18

If you can, please state the reported zone of inhibition at 5000 µg/mL value of `CN(C)c1ccc(-c2c[nH]c3c2c(=O)n(C)c(=O)n3C)cc1` .
20

Fill in: zone of inhibition at 5000 µg/mL of `Cn1c(=O)c2c(-c3cccc4ccccc34)c[nH]c2n(C)c1=O` is ___
20

Look up zone of inhibition at 5000 µg/mL: `Cn1c(=O)c2c(-c3cccs3)c[nH]c2n(C)c1=O`
20
